Examples of compounds with documented viability at 10 µM follow.
# testSummary: in vitro
# Type: cell-based
# details: mouse
attributeMeasured: viability at 10 µM (%)

1) C[C@]12C3=CC[C@@H](C4=CC(O)OC4=O)[C@]3(C)CC[C@@H]1[C@@]1(C)C(=O)C=C[C@@]3(C)CO[C@@H]([C@H]2O)[C@H]13 (stereo partly drawn) | 88.2
2) CC(=O)O[C@H]1[C@@H](O)[C@@]2(C)C3=CC[C@@H](c4ccoc4)[C@]3(C)CC[C@@H]2[C@@]2(C)C=CC(=O)C(C)(C)[C@H]12 | 91.4
3) CC(=O)O[C@@H]1C[C@H]2C(C)(C)C(=O)C=C[C@]2(C)[C@H]2CC[C@]3(C)C(=CC[C@H]3C3CCOC3=O)[C@@]21C (stereo partly drawn) | 91.9
4) CC(=O)O[C@H]1[C@@H](OC(C)=O)[C@]2(C)[C@H](CC[C@@]3(C)[C@H](c4ccoc4)C[C@H]4O[C@@]423)[C@@]2(C)C=CC(=O)C(C)(C)[C@H]12 | 85.9
5) CC1(C)C(=O)C=C[C@]2(C)[C@H]3CC[C@]4(C)C(=CC[C@H]4C4CCOC4=O)[C@]3(C)[C@H](O)C[C@@H]12 (stereo partly drawn) | 81.3
6) CC(=O)O[C@@H]1C[C@]2(C)C(=CC[C@H]2c2ccoc2)[C@@]2(C)[C@H]1[C@@]1(C)C=CC(=O)C(C)(C)[C@@H]1C[C@H]2OC(C)=O | 79
7) CC(=O)O[C@H]1[C@@H](OC(C)=O)[C@@]2(C)C3=CC[C@@H](c4ccoc4)[C@]3(C)CC[C@@H]2[C@@]2(C)C=CC(=O)C(C)(C)[C@H]12 | 84.3
8) CC(=O)O[C@H]1[C@@H](OC(C)=O)[C@]2(C)[C@H](CC[C@@]3(C)[C@H](c4ccoc4)C(=O)[C@H]4O[C@@]423)[C@@]2(C)C=CC(=O)C(C)(C)[C@H]12 | 82.1

Provenance of the data: paper PMC10814725
